- ASSAY_OVERVIEW: NCI Yeast Anticancer Drug Screen. Data for the cln2 rad14 strain (AID 165);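 also: 0% = growth equal to vehicle treated cultures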
- ASSAY_CONDITIONS: S. cerevisiae cln2 rad14 strain, at 50.0 µM, active compounds read high
The panel holds about 79,000 compounds, 15% with a hit somewhere; the sample as a whole holds those more often. Active and inactive are the calls of the source. Rule as the data show it: active = growth inhibition above about 70%; inactive = the rest.
QUANTITY_MEASURED: growth inhibition

Entry [N-]=[N+]=NC(=O)Nc1cccc(C(F)(F)F)c1 ; growth inhibition = 97.8% (active)

Entry c1ccc(C2=NC(c3ccccc3)=NS(S3=NC(c4ccccc4)=NC(c4ccccc4)=N3)=N2)cc1 (stereo not drawn) ; growth inhibition = 43% (inactive)

Entry CCCCCCCCCCNC1CC(OC2CC(O)(C(O)CO)Cc3c(O)c4c(c(O)c32)C(=O)c2c(OC)cccc2C4=O)OC(C)C1O (stereo not drawn) ; growth inhibition = 88.2% (active)

* * *

Exercise: for every item that follows, state its recorded growth inhibition.
- ASSAY_OVERVIEW: NCI Yeast Anticancer Drug Screen. Data for the sgs1 mgt1 strain (AID 161);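 also: 0% = growth of cultures given vehicle only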
- ASSAY_CONDITIONS: S. cerevisiae sgs1 mgt1 strain, at 50.0 µM, active compounds read high
The panel holds about 79,000 compounds, 15% with a hit somewhere; the sample as a whole holds those more often.
Number in %, nothing else.

Entry O=C(NO)c1cccnc1 ; growth inhibition = 29.1

Entry c1ccc(N=c2cnc3c(ccc4ccccc43)o2)cc1 ; growth inhibition = 94.2

Entry CCCCCCCCC(Sc1n[nH]c(=O)[nH]c1=O)C(=O)OCC (stereo unspecified) ; growth inhibition = 91.6

Entry O=C(NCCCCCCNC(=O)n1cc(F)c(=O)[nH]c1=O)NCCCOCCOCCOCCOCCOCCOCCOCCOCCOCCOCCOCCOCCOCCOCCOCCOCCOCCOCCOCCOCCOCCCNC(=O)C(O)C(O)C(OC1OC(CO)C(O)C(O)C1O)C(O)CO (stereo unspecified) ; growth inhibition = 81.5

Entry CCOC(=O)c1c(CN2CCNCC2)nc2ccc(Cl)cc2c1-c1ccccc1 ; growth inhibition = 68

Entry CCOC(=O)C(Cc1c[nH]c2cc([N+](=O)[O-])ccc12)NS(=O)(=O)c1ccc2ccccc2c1 (stereo unspecified) ; growth inhibition = 97.2

Entry CCc1cc2c(cc1C(C)=O)C(C)(C)CCC2 ; growth inhibition = 98.5

Entry C=CCNC(=O)c1ccccc1SC(C)=O ; growth inhibition = 89

Entry CCCCCCCCCCCCN1C(=O)[N+](C)(C)N=C1[O-] ; growth inhibition = 99.1

Entry CCN(CC)CCCn1c2cc(=O)c(=O)cc-2[nH]c2cc(C)ccc21 ; growth inhibition = 23.6

Entry O=S(c1cc(Br)ccc1O)c1cc(Br)ccc1O ; growth inhibition = 99

* * *

- ASSAY_OVERVIEW: NCI Yeast Anticancer Drug Screen. Data for the mec2-1 strain (AID 157)
- ASSAY_CONDITIONS: S. cerevisiae mec2-1 strain, at 50.0 µM
The panel holds about 79,000 compounds, 15% with a hit somewhere; the sample as a whole holds those more often. The source made the active and inactive calls. No stated cut-off is given here; in the data, active means growth inhibition above about 70%; inactive means the rest.
Log the outcome using a class from active, inactive

Identify the outcome logged in this assay for the compound shown: CC(=O)NC1CCC(C2CCCCC2)CC1C1CCCCC1 (stereo unspecified) active

Identify the outcome logged in this assay for the compound shown: COC1C(O)C(C)OC(OC2C(Oc3cccc4c(O)c5c(=O)oc6ccc(C)c7c(=O)oc(c34)c5c67)OC(C)C3O[C@H](c4ccccc4)OC32)C1O (stereo partly specified) active

Identify the outcome logged in this assay for the compound shown: CC(C)N1CSC(=S)N(Cc2ccccc2)C1 active

Identify the outcome logged in this assay for the compound shown: COC1OC2COC(c3ccccc3)OC2C2OC12 (stereo unspecified) inactive

Identify the outcome logged in this assay for the compound shown: CCN(CC)CCOc1ccc2c(C)c(-c3ccccc3)c(=O)oc2c1 inactive

Identify the outcome logged in this assay for the compound shown: Cc1nc2c(nc1C)C(=O)c1ccccc1C2=O active

Identify the outcome logged in this assay for the compound shown: COc1ccc(C2SC(N)=Nc3c2c(C)nn3C(=O)c2ccc(Cl)cc2)cc1OC (stereo unspecified) inactive

Identify the outcome logged in this assay for the compound shown: Nc1cc2ccc(O)cc2c2ccccc12 active

Identify the outcome logged in this assay for the compound shown: Cc1ccc(S(=O)(=O)C23C(N=NC2(C)C)C3(C)C)cc1 (stereo unspecified) inactive

Identify the outcome logged in this assay for the compound shown: CCCCCCCCCCCCCCCCOP(=O)(O)OCC(NC(C)=O)C(=O)O (stereo unspecified) active

Identify the outcome logged in this assay for the compound shown: c1cc2c3c(cccc3c1)-c1cnccc1-2 active

* * *

Exercise: for every item that follows, state its recorded growth inhibition.
- ASSAY_OVERVIEW: NCI Yeast Anticancer Drug Screen. Data for the mec2-1 strain (AID 157)
- ASSAY_CONDITIONS: S. cerevisiae mec2-1 strain, at 5.0 µM (retest, dose inferred, filed as 0.5), active compounds read high
About 79,000 compounds went through this panel and 15% of them were active in at least one assay; those are over-represented in the sample as a whole.
Number in %, nothing else.

Entry COC(=O)[C@@H](NS(=O)(=O)CC12CCC(CC1)C2(C)C)C(C)(C)C ; growth inhibition = 1

Entry O=[N+]([O-])Cc1cnc2nncn2n1 ; growth inhibition = -9

Entry CN1CCN(CN2C(=O)C3C4C=CC(C3C2=O)C2C3C(=O)N(CN5CCN(C)CC5)C(=O)C3C42)CC1 (stereo not given) ; growth inhibition = 1

Entry O=C1OC(c2ccccc2)C(c2ccccc2)=C1c1ccccc1 (stereo not given) ; growth inhibition = -18

Entry CC(=O)Nc1ccc(S(=O)(=O)N/N=C/c2ccc(C)cc2)cc1 ; growth inhibition = 8

* * *

- ASSAY_OVERVIEW: NCI Yeast Anticancer Drug Screen. Data for the wt2 strain (AID 169);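 also: 0% = growth of vehicle-treated yeast cultures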
- ASSAY_CONDITIONS: S. cerevisiae wt2 strain growth inhibition; at 1.2 µM; active compounds read high
About 79,000 compounds went through this panel and 15% of them were active in at least one assay; those are over-represented in the sample as a whole.
Exercise: for every item that follows, state its recorded growth inhibition.
Number in %, nothing else.

Entry Fc1ccccc1-c1ncc(-c2ccccc2)o1 ; growth inhibition = -1

Entry Cc1c2ccccc2c(C=O)c2ccccc12 ; growth inhibition = -11

Entry Cc1ccc(OC(=O)c2ccc(N)cc2O)cc1 ; growth inhibition = 0

Entry CCSC1=C(C)C(=O)c2ccccc2C1=O ; growth inhibition = 18

Entry CCC(C)c1ccc(O)c(C(C)CC)c1 (centres undefined) ; growth inhibition = -3

Entry Nc1ccccc1Oc1ccc(Cl)cc1Cl ; growth inhibition = -3

Entry Cc1c(C)c(CCl)c(C)c(C)c1CCl ; growth inhibition = 0

Entry c1ccc2nc3c(ccc4ccccc43)cc2c1 ; growth inhibition = 18

Entry Cc1nc(N=C(N)N)nc2ccc3ccccc3c12 ; growth inhibition = 6

Entry OC(CF)(c1ccc(Cl)cc1)c1ccc(Cl)cc1 ; growth inhibition = 16

Entry CCCCCCCCCCCCN ; growth inhibition = -14

Entry C[n+]1c2cc(N)ccc2cc2ccc(N)cc21 ; growth inhibition = -6

Entry COc1cccc(-c2nnc(-c3ccccc3)o2)c1 ; growth inhibition = 20

Entry Cc1nc2cc(Cl)ccc2n1-c1ccccc1 ; growth inhibition = 7

* * *

- ASSAY_OVERVIEW: NCI Yeast Anticancer Drug Screen. Data for the sgs1 mgt1 strain (AID 161);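 also: 0% = growth of cultures given vehicle only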
- ASSAY_CONDITIONS: S. cerevisiae sgs1 mgt1 strain, at 50.0 µM, active compounds read high
About 79,000 compounds went through this panel and 15% of them were active in at least one assay; those are over-represented in the sample as a whole.
Exercise: for every item that follows, state its recorded growth inhibition.
Number in %, nothing else.

Entry OC(CN1CCCCC1)c1cc(-c2ccc(Cl)cc2)nc2cc(Cl)ccc12 (stereo unspecified) ; growth inhibition = 99.5

Entry CC(=O)c1ccc(N)cc1 ; growth inhibition = 26.8

Entry O=C(CC(=O)CC(O)(c1ccccc1)c1ccccc1)CC(=O)c1ccccc1 ; growth inhibition = 98

Entry CCCCCCCCCC(=O)c1ccc(O)c(O)c1O ; growth inhibition = 93.1

Entry CC(=O)OC1CC2C(C)(C)C(=O)C=C[C@]2(C)C2CCC3(C)C(=CC(=O)C3c3ccoc3)[C@]12C (stereo partly specified) ; growth inhibition = 87

Entry O=Cc1cc([N+](=O)[O-])cc(CCl)c1O ; growth inhibition = 15.2

Entry Cc1n(Cc2ccccc2)c2c([n+]1C)C(=O)c1ccccc1C2=O ; growth inhibition = 91.2

Entry Clc1ccc(CNCCCNCc2ccc(Cl)cc2)cc1 ; growth inhibition = 50.4

Entry O=S(c1cc(Cl)cc(Cl)c1O)c1cc(Cl)cc(Cl)c1O ; growth inhibition = 98

Entry Cc1c2ccccc2c(C=O)c2ccccc12 ; growth inhibition = 91.2

Entry CN(C)CCCN=c1c2ccccc2n(O)c2cccc([N+](=O)[O-])c12 ; growth inhibition = 46.9

* * *

- ASSAY_OVERVIEW: NCI Yeast Anticancer Drug Screen. Data for the bub3 strain (AID 167)
- ASSAY_CONDITIONS: S. cerevisiae bub3 mutant strain, at 50.0 µM (retest, dose inferred, filed as 5.0), active compounds read high
About 79,000 compounds went through this panel and 15% of them were active in at least one assay; those are over-represented in the sample as a whole.
QUANTITY_MEASURED: growth inhibition (%)
Number in %, nothing else.

Entry O=C(O)COc1ccc(OCC(=O)O)cc1 ; growth inhibition = 4

Entry CCCCCCCCCCCCCCCCBr ; growth inhibition = -3

Entry Nc1cc(Cl)c(S(=O)(=O)O)cc1Cl ; growth inhibition = 98

Entry [N-]=[N+]=CC(=O)OCC1NC(=O)C(COC(=O)C=[N+]=[N-])NC1=O (stereo not given) ; growth inhibition = -2

Entry CC(C)CCC[C@@H](C)[C@H]1CC[C@H]2[C@@H]3CC=C4N5CCCN=C5CC[C@]4(C)[C@H]3CC[C@]12C ; growth inhibition = 97

Entry COc1c(CBr)c(CBr)c(OC)c2c1C(=O)c1ccccc1C2=O ; growth inhibition = 99

Entry N#CCCC(CCC#N)(CCC#N)C(=O)c1ccccc1 ; growth inhibition = 23

Entry OC(c1ccccc1)(c1ccccc1)c1ccccc1 (tested in a mixture with another compound) ; growth inhibition = 96

Entry CN(C)CCCN=c1c2ccccc2n(O)c2cccc([N+](=O)[O-])c12 ; growth inhibition = -10

Entry COc1cccc2c1C(=O)c1c(O)c3c(c(O)c1C2=O)C[C@@](O)(C(C)=O)C[C@@H]3OC1CC(N)C(O)C(C)O1 (stereo not given in full) ; growth inhibition = 93

Data provenance is PubChem BioAssay (NCI).
